Molecular target: T1, human SLC34A2 (human, UniProt O95436 1-690)
T1 construct: whole, on cells; also called human solute carrier 34 A2; NaPi2b
T1 sequence (looked up): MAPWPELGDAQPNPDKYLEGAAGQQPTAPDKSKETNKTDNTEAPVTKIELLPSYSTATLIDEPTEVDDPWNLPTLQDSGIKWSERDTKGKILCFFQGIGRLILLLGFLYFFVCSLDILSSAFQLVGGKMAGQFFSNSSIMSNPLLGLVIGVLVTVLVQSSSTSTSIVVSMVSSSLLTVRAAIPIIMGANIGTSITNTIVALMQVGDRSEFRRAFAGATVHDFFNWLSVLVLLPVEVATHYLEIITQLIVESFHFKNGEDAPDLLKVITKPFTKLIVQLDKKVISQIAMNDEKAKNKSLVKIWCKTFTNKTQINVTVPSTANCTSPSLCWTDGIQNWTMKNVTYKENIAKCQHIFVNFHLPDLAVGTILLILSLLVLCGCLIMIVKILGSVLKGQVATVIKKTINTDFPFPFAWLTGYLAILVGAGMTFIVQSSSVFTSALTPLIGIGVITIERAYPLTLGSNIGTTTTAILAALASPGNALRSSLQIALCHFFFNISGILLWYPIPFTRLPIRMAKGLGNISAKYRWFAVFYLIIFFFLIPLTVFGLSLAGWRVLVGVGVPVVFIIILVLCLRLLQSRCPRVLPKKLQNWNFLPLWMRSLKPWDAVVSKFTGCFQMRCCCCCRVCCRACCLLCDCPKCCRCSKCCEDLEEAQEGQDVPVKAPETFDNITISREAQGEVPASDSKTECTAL
Assay: FACS, RMG-1 cells
measure: Top (MFI)

1) 63A11D5B4.p1.z15 hIgG1 (antibody, V domains shown, humanized hIgG1) VH: QVQLQQSGAEVVKPGASVKMSCKTSGYTFITYNMHWVKQAPGQGREWIGAIYPGSGDTSYNQKFKGRATLTADKSTSTAYMELSSLRSEDTAVYYCSISTIITTGAVDYWGQGTSVTVSS VL: DIQMTQSPSSLSTSVGDRVTITCKASQDVGTAVAWYQQKPGQSPKLLIYWTSTRHTGVPDRFSGSGSGTDFTLIIRSLQPEDVATYFCQQYSRIPLTFGGGTKVEIK : 13200
2) 30H9B8F9.p1.z13 hIgG1 (antibody, V domains shown, humanized hIgG1) VH: QVQLVQSGAEVVKPGASVKMSCKTSGYTFTTNNMHWVKQAPGQGLEWIGAIYPGSGATAYNQKFKGRATLTADKSTSTAYMELSSLRSEATAVYYCARGMYGHGAMDYWGQGTSVTVSS VL: DIQLTQSPSFLSASVGDRVTITCKASQDVGTAVAWYQQKPGKAPKLLIYWATTRHSGVPSRFSGSGSGTEFTLTISSLQPEDFATYYCQQYSSNPLTFGQGTKLEIK : 10900
3) 62G10E4G8.p3.z11 hIgG1 (antibody, V domains shown, humanized hIgG1) VH: QVQLVQSGAEVKKPGASVKVSCKASGYTFPSYITHWVKQAPGQGLEWIGAIYPGNADTSYIQKFKGRVTLTADKSTSTAYMELSSLRSEDTAVYYCARGTYGTSAWFTYWGQGTLVTVSS VL: EIVLTQSPATLSVSPGERATLSCRARQNIGNNLYWYQQKPGQSPRLLIKYASQSISGIPSRFSGSGSGTDFTLTISSLQSEDFAVYFCQQSFSWPLTFGQGTKLEIK : 11300

Data origin, for the record: patent US20240301052A1
